B1: tRNA (parent)
chain: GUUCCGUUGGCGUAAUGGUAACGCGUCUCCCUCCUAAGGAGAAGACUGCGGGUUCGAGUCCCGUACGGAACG

variants of: B1; assay: yeast fitness relative to wild type (ratio to wild type); higher = fitter; tRNA-Arg(CCU), competitive growth, 37 C, YPD
Variants at the floor of the assay were thinned out.
Label criterion not met if yeast fitness falls below 0.7; label criterion met in every other case.

1. C11U U13A C30U G38C C49A; criterion not met
2. C55U C61A G68A; criterion not met
3. C5A U16C U59G; criterion not met
4. A40C; criterion met
5. U3C U8C U13C; criterion not met
6. U7A C29U A57C; criterion not met
7. C5U G10A U13A A15G G50C A57G; criterion not met
8. U2G U54C C66U; criterion not met
9. C22G G48C A69C; criterion not met
10. G25A C30U A36C; criterion not met
11. U13A A21C U35C G39A A42C A43G C46U; criterion not met
12. C31G C33U A40C; criterion not met
13. C27U A45C G48A A57U G67A; criterion not met
14. A20C U54C C55U; criterion not met
15. A15G A21G G39A; criterion not met
16. U26G G48A; criterion met
17. A20G A57C C62G C66G; criterion not met
18. C30A C46A; criterion met
19. G10A A36G; criterion not met
20. G48C U54G C55U; criterion not met
21. C24G C49G G50C; criterion not met
22. G18C G50A; criterion not met
23. C33U A43U C49G G50C C61U C66U; criterion not met
24. U8C A37G G50A A69U; criterion not met
25. U28G C31U A40C A57G; criterion met
26. C11G U35C A43C G52C U54A; criterion not met
27. C29U C31A G38C C60A; criterion not met
28. C31A A37U C49A C55U; criterion not met
29. A45C G56C; criterion not met
30. U8A C22U G38C C49G; criterion not met
31. C22U C24G C30G; criterion not met
32. C31G C34U A40C G41A; criterion not met
33. C34G G44C; criterion not met
34. U16A A37G A40C U47G; criterion not met
35. U2A A21G; criterion met
36. C5A G18A G25A C31U U47C C61U; criterion not met
37. G52C A57C; criterion not met
38. C4A U19A A40U G48C; criterion not met
39. G18A A40G A70C; criterion not met
40. U16G U28C; criterion met
41. C4G C24U A45C; criterion not met
42. C22A C29G C61U; criterion not met
43. G48C G68C; criterion met
